Hey, just so you know, these numbers are from ChEMBL document CHEMBL5360627.

- Test system: Bacillus subtilis
- RUN DESCRIPTION: Antibacterial activity against Bacillus subtilis ATCC 6633 assessed as reduction in bacterial growth incubated for 24 hrs by Mueller-Hinton broth based assay
- Format: functional
Can you tell me MIC for the items I'm about to list?
Numbers only, in µg/mL.

Please supply MIC for each of the following items, keeping them in order.
1. CC1(C)S[C@@H]2[C@H](NC(=O)[C@H](N)c3ccccc3)C(=O)N2[C@H]1C(=O)O [AMPICILLIN]
2. CC(C)=CCc1c(-c2ccc3c(c2O)C=CC(C)(C)O3)oc2cc(O)cc(O)c2c1=O
3. CC(C)=CCc1c(-c2ccc(O)c3c2OC(C)(C)C=C3)oc2cc(O)cc(O)c2c1=O [KUWANON A]
4. O=C(N[C@H](CO)[C@H](O)c1ccc([N+](=O)[O-])cc1)C(Cl)Cl [CHLORAMPHENICOL]

stdout:
1. 8
2. 1
3. 4
4. 8

====

- Test system: Enterococcus faecalis
- RUN DESCRIPTION: Antibacterial activity against Enterococcus faecalis ATCC 29212 assessed as reduction in bacterial growth incubated for 24 hrs by Mueller-Hinton broth based assay
- Assay type: functional
Kindly state MIC for each of the entries shown.
One number for each entry, in µg/mL.

# example entries with known answers
1. O=C(N[C@H](CO)[C@H](O)c1ccc([N+](=O)[O-])cc1)C(Cl)Cl [CHLORAMPHENICOL]: 8
2. CC(C)=CCc1c(-c2ccc3c(c2O)C=CC(C)(C)O3)oc2cc(O)cc(O)c2c1=O: 1
3. CC1(C)S[C@@H]2[C@H](NC(=O)[C@H](N)c3ccccc3)C(=O)N2[C@H]1C(=O)O [AMPICILLIN]: 0.5

Proceeding to the next compound to report its MIC.
stdin: Reported MIC, compound CC(C)=CCc1c(-c2ccc(O)c3c2OC(C)(C)C=C3)oc2cc(O)cc(O)c2c1=O [KUWANON A] : ____
stdout: 8
